Test: NCI Yeast Anticancer Drug Screen. Data for the sgs1 mgt1 strain (AID 161);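 further: 0% = growth of cultures given vehicle only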
Details: S. cerevisiae sgs1 mgt1 strain, at 50.0 µM, stronger effect = higher value
About 79,000 compounds went through this panel and 15% of them were active in at least one assay; those are over-represented in the sample as a whole.
A collection of compounds and their measured growth inhibition
# value in %; strip the unit string

Observe how each entry below is paired with its result.
CCC(C)c1cnc(CC(C)C)c(=O)n1O (configuration not stated): 90
CC(C)[C@]12O[C@H]1[C@@H]1O[C@]13[C@]1(O[C@H]1C[C@H]1C4=C(CC[C@@]13C)C(=O)OC4)[C@@H]2O: -20.1
CC[C@@H]1C[C@H]2CC3c4[nH]c5ccccc5c4CCN(C2)C31: 61.3
COc1cc(-c2[nH]ccc2Cl)oc1C1=C2N=C3C=C2C(C(C)C)C1CCCCCCCC3 (configuration not stated): 89
O=P(O)(O)c1ccccc1.[Zn+2]: -0.45
COc1c[c]([Hg][O]C(C)=O)c(OC)c(NC(=O)CC(C)=O)[c]1[Hg][O]C(C)=O: 92.5

Lab note: "CCC[CH2][Sn]([Br])([CH2]CCC)[CH2]CCC" gave growth inhibition of 95.8

Quick note, growth inhibition for "[Cu+2].[O-]c1ccc2ccccc2c1N=Nc1ccccc1.[O-]c1ccc2ccccc2c1N=Nc1ccccc1" landed at -13.1

Looking up "O=P(CCP(=O)(c1ccccc1)c1ccccc1)(c1ccccc1)c1ccccc1.[Cl][Sn]([Cl])([c]1ccccc1)[c]1ccccc1" , I see its growth inhibition listed as 88.5
